# subject-of-test: recombinant JAK2 (Homo sapiens, UniProt O60674)
# Construct: purchased Upstate Cell Signaling Solutions
# Sequence (O60674 808-1132 limits assumed): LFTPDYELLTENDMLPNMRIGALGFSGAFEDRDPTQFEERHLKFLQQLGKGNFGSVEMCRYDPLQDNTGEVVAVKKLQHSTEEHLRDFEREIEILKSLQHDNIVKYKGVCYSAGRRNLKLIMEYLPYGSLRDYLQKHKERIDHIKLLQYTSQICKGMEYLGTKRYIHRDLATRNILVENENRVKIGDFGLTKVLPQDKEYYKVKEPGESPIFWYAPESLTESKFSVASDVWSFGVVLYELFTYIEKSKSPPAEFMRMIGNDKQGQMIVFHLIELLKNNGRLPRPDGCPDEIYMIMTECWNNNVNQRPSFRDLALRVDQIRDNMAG
# protocol-description: IC50 value determinations for Jak2 kinase, luminescence-based kinase assay (Kinase-Glo)
# Assay type: biochemical
# measurement-conditions: Table 8, SAR of the P4 region
pIC50: −log10 of the molar value.
experimental-endpoint: pIC50

[A] COc1cccc(Nc2ccnc(Nc3ccc(OCCN4CCCC4)cc3)n2)c1 [Compound 4]
[B] Cc1cnc(Nc2ccc(N3CCN(C)CC3)cc2)nc1Nc1cc(C)c(Cl)c(C)c1 [Compound 38]
Challenge: Compare the recorded pIC50 of A and B ; state which is larger. Refer to your chosen item by its label in the answer.
Response given: B
(B: 7.92, A: 6.98)

* * *

# protocol-description: Ocular exposure after eye drop administration
# Assay type: in vivo
# measurement-conditions: cornea; mouse; bilateral topical instillation of 0.1% formulation QDX1; 7 hr; read-out: Concentration (nM) Cornea
experimental-endpoint: concentration at 7 h (nM)

Cc1cnc(Nc2ccc(N3CCN(C)CC3)cc2)nc1Nc1ccc(Cl)c2[nH]ccc12 [Compound LXXIV] ... 21000

[I] Cc1cnc(Nc2ccc(OCCN3CCCC3)cc2)nc1Nc1cccc2c1OCO2 [Compound XXXVI]
[II] COc1cc(Nc2nc(Nc3ccc(N4CCNCC4)cc3)ncc2C)ccc1Cl [Compound XLIV]
[III] COc1cc(Nc2nc(Nc3ccc(OC4CCNCC4)cc3)ncc2C)ccc1Cl [Compound LXXXII]
Challenge: # desc sort on concentration at 7 h across 3 compounds Put the labels in the requested order and write them down.
Response given: III, II, I

* * *

# Test system: CTLL-2 cells
# protocol-description: IL-2-induced JAK3-dependent proliferation of CTLL-2 cells
# Type: cell-based
# measurement-conditions: Mus musculus, Control data: IL-2-induced JAK3-dependent proliferation
experimental-endpoint: EC50 (µM)
Please state the figure in µM; there is no need to write the unit.

Challenge: Give the measured EC50 of Cc1cnc(Nc2ccc(N3CCN(C)CC3)cc2)nc1Nc1cccc(S(=O)(=O)NC(C)(C)C)c1 .
Response given: 3.4

* * *

# subject-of-test: recombinant JAK2 (Homo sapiens)
# Construct: purchased Upstate Cell Signaling Solutions
# protocol-description: IC50 value determinations for Jak2 kinase, luminescence-based kinase assay (Kinase-Glo)
# Assay type: biochemical
# measurement-conditions: Table 1
pIC50: −log10 of the molar value.
experimental-endpoint: pIC50

CNS(=O)(=O)c1cc(Nc2nc(Nc3ccc(OCCN4CCCC4)cc3)ncc2C)ccc1C ... 6.90
Cc1cnc(Nc2ccc(N3CCNCC3)c(C(F)(F)F)c2)nc1Nc1cccc(S(=O)(=O)NC(C)(C)C)c1 ... 7.65
COc1cc(Nc2nc(Nc3cccc(N4CCNCC4)c3)ncc2C)ccc1Cl ... 8.02

[P] COc1cccc(Nc2ccnc(Nc3ccc(S(=O)(=O)NCCN4CCCC4)cc3)n2)c1 [trifluoroacetate]
[Q] Cc1cnc(Nc2ccc(CN3CCN(C)CC3)cc2)nc1Nc1cccc(S(=O)(=O)NC(C)(C)C)c1
Challenge: Which one would you say has the larger pIC50 value: P , or Q ? Answer by quoting the chosen item's label.
Response given: Q

* * *

# protocol-description: Ocular exposure after eye drop administration
# Assay type: in vivo
# measurement-conditions: sclera/choroid; mouse; bilateral topical instillation of 0.1% formulation QDX1; 2 hr; read-out: Concentration (nM) Sclera/choroid
# Description: Exposure data of compounds at 0.1% via eye drop administration: On topical dosing of compounds formulated as 0.1% doses in 0.2% tyloxapol/1% HPMC/4% Mannitol, exposure levels in found in back of the eye tissues of the mouse are shown at two different time points, namely at 2 h and at 7 h.
experimental-endpoint: concentration at 2 h (nM)

In the examples that follow, each entry is paired with its recorded concentration at 2 h.
COc1cc(Nc2nc(Nc3ccc(OCCN4CCCC4)cc3)ncc2C)ccc1Cl [XVII] ... 6040
COc1cc(Nc2nc(Nc3ccc(N4CCNCC4)cc3)ncc2C)ccc1Cl [Compound XLIV] ... 4840
Cc1cnc(Nc2ccc(OCCN3CCCC3)cc2)nc1Nc1cccc2c1OCO2 [Compound XXXVI] ... 7250

[a] Cc1cnc(Nc2ccc(N3CCN(C)CC3)cc2)nc1Nc1ccc(Cl)c2[nH]ccc12 [Compound LXXIV]
[b] COc1cc(Nc2nc(Nc3ccc(OC4CCNCC4)cc3)ncc2C)ccc1Cl [Compound LXXXII]
Challenge: Higher concentration at 2 h between a and b ? Which one? Tell me its label.
Response given: a
(a: 6090 nM, b: 2340 nM)

* * *

# Test system: phospho-JAK2V617F, phospho-STAT5, phospho-STAT3
# protocol-description: Phosphorylation of JAK2V617F, STAT5 and STAT3 in HEL cells
# Type: cell-based
# measurement-conditions: Homo sapiens, read-out: IC50, levels of phospho-JAK2V617F, phospho-STAT5, phospho-STAT3
experimental-endpoint: IC50

Challenge: May I ask what IC50 has been recorded for Cc1cnc(Nc2ccc(N3CCN(C)CC3)cc2)nc1Nc1cccc(S(=O)(=O)NC(C)(C)C)c1 ?
Response given: 300 to 600 nM

* * *

# subject-of-test: recombinant JAK2 (Homo sapiens, UniProt O60674)
# Construct: purchased Upstate Cell Signaling Solutions
# protocol-description: IC50 value determinations for Jak2 kinase, luminescence-based kinase assay (Kinase-Glo)
# Assay type: biochemical
# measurement-conditions: Table 6
experimental-endpoint: IC50 (nM)

[A] COc1cc(Nc2nc(Nc3ccc(OCCN4CCCC4)cc3)ncc2C)ccc1Cl
[B] COc1cccc(Nc2nc(Nc3ccc(OCCN4CCCC4)cc3)ncc2C)c1
[C] COc1cccc(Nc2ccnc(Nc3ccc(OCCN4CCCC4)cc3)n2)c1
Challenge: Arrange items by their IC50 values in increasing order. Record the ranking as a list of labels in the requested order.
Response given: A, B, C

* * *

# protocol-description: Ocular exposure after eye drop administration
# Type: in vivo
# measurement-conditions: sclera/choroid; mouse; bilateral topical instillation of 0.1% formulation QDX1; 7 hr; read-out: Concentration (nM) Sclera/choroid
experimental-endpoint: concentration at 7 h (nM)

Cc1cnc(Nc2ccc(N3CCN(C)CC3)cc2)nc1Nc1ccc(Cl)c2[nH]ccc12 ... 7350
COc1cc(Nc2nc(Nc3ccc(N4CCNCC4)cc3)ncc2C)ccc1Cl ... 3180

[A] COc1cc(Nc2nc(Nc3ccc(OC4CCNCC4)cc3)ncc2C)ccc1Cl
[B] Cc1cnc(Nc2ccc(OCCN3CCCC3)cc2)nc1Nc1cccc2c1OCO2
Challenge: Given the two records A and B , choose the one whose concentration at 7 h value is lower. Give the label under which the chosen entry appears.
Response given: A
(A: 2250 nM, B: 34800 nM)

* * *

# subject-of-test: recombinant JAK2 (Homo sapiens)
# Construct: purchased Upstate Cell Signaling Solutions
# protocol-description: IC50 value determinations for Jak2 kinase, luminescence-based kinase assay (Kinase-Glo)
# Assay type: biochemical
# measurement-conditions: Table 9, SAR of the P2/P1 region
experimental-endpoint: pIC50
The meaning of pIC50 here: minus log10 of the concentration in molar units.

Challenge: Reported pIC50, compound Cc1cnc(Nc2cccc(S(=O)(=O)NC(C)(C)C)c2)nc1Nc1cccc(S(=O)(=O)NC(C)(C)C)c1 : ____
Response given: 6.15

* * *

# subject-of-test: recombinant JAK2 (Homo sapiens, UniProt O60674)
# Construct: purchased Upstate Cell Signaling Solutions
# protocol-description: IC50 value determinations for Jak2 kinase, luminescence-based kinase assay (Kinase-Glo)
# Type: biochemical
# measurement-conditions: Table 5, Initial Screening Hits for JAK2
experimental-endpoint: IC50 (µM)

[a] COc1cc(Nc2nc(Nc3ccc(OCCN4CCCC4)cc3)ncc2C#N)c(Cl)cc1Cl [Compound 1]
[b] COc1cc(Nc2nc(Nc3cccc(OCCN4CCCC4)c3)ncc2C#N)c(Cl)cc1Cl [Compound 2]
[c] COc1cc(Nc2nc(Nc3cccc(OCCN4CCCC4)c3)ncc2C)c(Cl)cc1Cl [Compound 3]
Challenge: In a descending ranking, list each entry from above by its IC50, from the largest value down to the smallest. Lab note: final answer is the ordered label list.
Response given: b, a, c
(b: 10.5 µM, a: 6.24 µM, c: 2.04 µM)

* * *

# subject-of-test: recombinant JAK2 (Homo sapiens)
# Construct: purchased Upstate Cell Signaling Solutions
# protocol-description: IC50 value determinations for Jak2 kinase, luminescence-based kinase assay (Kinase-Glo)
# Assay type: biochemical
# measurement-conditions: Table 1
Where a name gives a salt, the structure may show the parent alone.
experimental-endpoint: IC50 (nM)

[A] Cc1cnc(Nc2ccc(OCCN3CCCC3)cc2)nc1Nc1cccc(C(F)(F)F)c1
[B] COc1cc(Nc2nc(Nc3cccc(OCCN4CCCC4)c3)ncc2C)c(Cl)cc1Cl [drawing 300]
Challenge: Select the item whose IC50 value is smaller, choosing between A and B . Identify your pick by its label.
Response given: A

[I] Cc1cnc(Nc2ccc(N3CCN(C)CC3)cc2)nc1Nc1cccc(C)c1C [Hydrochloride]
[II] Cc1cnc(Nc2ccc(N3CCN(C)CC3)cc2)nc1Nc1ccc(Cl)c2[nH]ccc12 [drawing 356]
Challenge: # argmax over IC50 for candidates I and II To answer, give the label that identifies your chosen option.
Response given: I

[P] Cc1cnc(Nc2ccc(OCCN3CCCC3)cc2)nc1Nc1ccc(F)c2[nH]ccc12 [Hydrochloride]
[Q] COc1cc(Nc2nc(Nc3ccc(OCCN4CCCC4)cc3)ncc2C#N)c(Cl)cc1Cl [drawing 298]
Challenge: Consider entries P and Q . Which has the numerically lower IC50? Identify your pick by its label.
Response given: P
(P: 9.28 nM, Q: 6240 nM)

Source listed as patent US8604042B2.
